Numbers sourced from patent US8557832B2.

# target or test system: acetylcholine muscarinic M1 receptor (Homo sapiens, UniProt P11229)
# Construct: also called CHOK1/hM1)
# Sequence (P11229 1-460): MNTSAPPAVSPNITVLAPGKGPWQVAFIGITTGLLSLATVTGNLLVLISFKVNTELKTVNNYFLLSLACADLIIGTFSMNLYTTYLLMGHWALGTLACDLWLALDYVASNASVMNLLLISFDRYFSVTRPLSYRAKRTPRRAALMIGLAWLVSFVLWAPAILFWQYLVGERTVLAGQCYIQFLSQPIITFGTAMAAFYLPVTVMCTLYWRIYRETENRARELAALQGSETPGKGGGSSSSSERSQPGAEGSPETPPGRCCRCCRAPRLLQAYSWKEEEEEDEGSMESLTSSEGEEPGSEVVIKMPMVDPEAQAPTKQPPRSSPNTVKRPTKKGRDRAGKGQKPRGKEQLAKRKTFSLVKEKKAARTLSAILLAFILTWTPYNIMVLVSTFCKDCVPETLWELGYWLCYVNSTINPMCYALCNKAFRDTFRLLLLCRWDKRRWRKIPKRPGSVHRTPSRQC
# assay protocol: muscarinic FLIPR assay: potentiation of acetylcholine (EC20)-stimulated intracellular Ca2+ in CHOnfat/hM1 cells
# measurement conditions: 4 min preincubation, then EC20 acetylcholine (3 nM final), read-out: IP Value (inflection point)
pEC50: −log10 of the molar value.
assay endpoint: pEC50

• COc1ccc(Cc2cc3c(=O)n(-c4cc(C)[nH]n4)cnc3c3ccccc23)cc1 [Example 3] = 5.74

A. CC(=O)O[C@H]1CCCC[C@@H]1n1cnc2c(cc(Cc3ccc(Cl)nc3)c3ccccc32)c1=O (racemic) [Example 11]
B. CS(=O)(=O)c1ccc(Cc2cc3c(=O)n([C@H]4CCCC[C@@H]4O)cnc3c3ccccc23)cn1 (racemic) [Example 8]
Of A and B , which shows the smaller pEC50 value? Response format: the label of the selected entry.
A

====

# target or test system: acetylcholine muscarinic M1 receptor (Homo sapiens, UniProt P11229)
# Construct: also called CHOK1/hM1)
# assay protocol: muscarinic FLIPR assay: potentiation of acetylcholine (EC20)-stimulated intracellular Ca2+ in CHOnfat/hM1 cells
# measurement conditions: 4 min preincubation, then EC20 acetylcholine (3 nM final), read-out: IP Value (inflection point)
pEC50: −log10 of the molar value.
assay endpoint: pEC50

For orientation, consider the following solved cases.
* O=c1c2cc(Cc3ccc(-n4cccn4)nc3)c3ccccc3c2ncn1[C@H]1CCCC[C@@H]1O (racemic) | 7.51
* Cc1ccc(Cc2cc3c(=O)n([C@H]4CCCC[C@@H]4O)cnc3c3ccccc23)cn1 (racemic) [Example 1] | 7.29
* Cc1ccc(Cc2cc3c(=O)n([C@H]4CCCC[C@@H]4O)cnc3c3ccccc23)c[n+]1[O-] | 7.20
* O=C1CCCCC1n1cnc2c(cc(Cc3ccc(Cl)nc3)c3ccccc32)c1=O (stereo not shown) | 5.89
* COc1ccc(Cc2cc3c(=O)n(-c4cccnc4)cnc3c3ccccc23)cc1 | 5.46

A. Cc1nc2c(cc(Cc3ccc(Cl)nc3)c3ccccc32)c(=O)n1[C@H]1CCCC[C@@H]1O
B. CC(C)(O)c1ccc(Cc2cc3c(=O)n([C@H]4CCCC[C@@H]4O)cnc3c3ccccc23)cn1
Between A and B , whose recorded pEC50 is greater? Response format: the label of the selected entry.
B

a. Cn1cc(Cc2cc3c(=O)n([C@H]4CCCC[C@@H]4O)cnc3c3ccccc23)ccc1=O (racemic)
b. CC(C)c1ccc(Cc2cc3c(=O)n([C@H]4CCCC[C@@H]4O)cnc3c3ccccc23)cn1
Of a and b , which shows the smaller pEC50 value? Response format: the label of the selected entry.
a
(a: 7.08, b: 7.68)

a. Cn1cc(-c2ccc(Cc3cc4c(=O)n([C@H]5CCCC[C@@H]5O)cnc4c4ccccc34)cn2)cn1 (racemic)
b. N#Cc1ccc(Cc2cc3c(=O)n([C@H]4CCCC[C@@H]4O)cnc3c3ccccc23)cn1 (racemic)
c. O=c1c2cc(Cc3ccc(CO)nc3)c3ccccc3c2ncn1[C@H]1CCCC[C@@H]1O (racemic)
d. O=c1c2cc(Cc3ccccn3)c3ccccc3c2ncn1[C@H]1CCCC[C@@H]1O
# ascending order, key=pEC50 Provide the labels, sequenced as the question asks.
d, b, c, a
(d: 6.64, b: 7.13, c: 7.62, a: 8.10)

====

# target or test system: acetylcholine muscarinic M1 receptor (Homo sapiens, UniProt P11229)
# Construct: also called CHOK1/hM1)
# assay protocol: muscarinic FLIPR assay: potentiation of acetylcholine (EC20)-stimulated intracellular Ca2+ in CHOnfat/hM1 cells
# measurement conditions: 4 min preincubation, then EC20 acetylcholine (3 nM final), read-out: IP Value (inflection point)
assay endpoint: pEC50
Scale explanation: pEC50 corresponds to minus log10 of a concentration expressed in moles per litre.

• COc1ccc(Cc2cc3c(=O)n([C@H]4CCCC[C@@H]4O)cnc3c3ccccc23)cn1 (racemic) [Example 9] = 7.14

Continue with the next compound.
Report measured pEC50; entry is Cc1ccc(Cc2cc3c(=O)n([C@H]4CCCC[C@@H]4O)cnc3c3ccccc23)cn1 [Example 2]
7.68
